Exercise: state measured T/C for each of the molecules provided.
tested on: P388 leukemia ip, CD2F1 mice, survival T/C; assay: NCI In Vivo Anticancer Drug Screen. Data for tumor model P388 Leukemia (intraperitoneal) in CD2F1 (CDF1) mice; details: endpoint: median survival time; dose: 100.0 mg/kg/injection; schedule: Q01DX009 (ip); vehicle: saline with Tween-80; higher = longer survival
Toxic doses and inconclusive results are not listed.

Solved cases below.
[ask] Look up and report T/C, with P388 leukemia ip, CD2F1 mice, survival T/C as system, for Clc1nnc(Cl)s1
[reply] 101 % of control

[ask] Look up and report T/C, with P388 leukemia ip, CD2F1 mice, survival T/C as system, for O=C1NC(=O)C(Cc2ccccc2)(Cc2ccccc2)C(=O)N1
[reply] 90 % of control

[ask] Look up and report T/C, with P388 leukemia ip, CD2F1 mice, survival T/C as system, for CCCOP(=S)(N1CC1C)N1CC1(C)C (configuration not stated)
[reply] 113 % of control

[ask] Look up and report T/C, with P388 leukemia ip, CD2F1 mice, survival T/C as system, for CCCCCCCCCC(C)(O)C#CC(C)(O)CCCCCCCCC (configuration not stated)
[reply] 87 % of control

[ask] Look up and report T/C, with P388 leukemia ip, CD2F1 mice, survival T/C as system, for Nc1ccc(-c2ccc(N)c(Cl)c2)cc1Cl
[reply] 114 % of control

Give measured T/C for every item shown.
1. On1cc/c(=N\N=C\c2ccc(N(CCCl)CCCl)cc2)c2ccc(Cl)cc21
2. Clc1n[nH]c(Cl)n1

[reply]
1: 101 % of control; 2: 95 % of control

Source listed as PubChem BioAssay AID330.
